System: SNB-19
Test: NCI 60-cell line one dose antiproliferative assay
Format: cell-based
Conditions: Homo sapiens; SNB-19, CNS Cancer, 10 µM one dose; read-out: Percent inhibition (cell growth inhibition %)
Source text: The National Cancer Institute "NCI", NIH, Bethesda, Maryland, USA (www.dtp.nci.nih.gov) chose six of the final compounds for the Developmental Therapeutic Program (DTP), codes (5a, 5b, 5c, 5d, 6a, 6b). The NCI screening service will favor compounds with drug-like modes of action based on computer-aided design. Selection The criterion for screening is the possibility of the submitted compounds to provide diversity to the NCI small molecule chemical collection. […]
Lab note: compare inhibition at 10 µM against 6%. Equal or greater, write class 1. Smaller, write class 0.

CN(C)c1ccc(C=NNC(=O)COc2ncnc3sc4c(c23)CCCC4)cc1 [5d] :: class 0
COc1ccc(C=NNC(=O)COc2ncnc3sc4c(c23)CCCC4)c(OC)c1OC [5a] :: class 1
O=C(COc1ncnc2sc3c(c12)CCCC3)NN=Cc1ccc(Br)cc1 [5c] :: class 0
O=C(COc1ncnc2sc3c(c12)CCCC3)NNC(=S)Nc1ccccc1 [6a] :: class 0

Now for another entry.
Please check the record O=C(COc1ncnc2sc3c(c12)CCCC3)NN=Cc1ccc(Cl)cc1 [5b] and state if its inhibition at 10 µM is at or above 6%.
class 1
